Values compiled from the supplement of paper PMC10567573.

B1: EPB41L3 (parent)
chain: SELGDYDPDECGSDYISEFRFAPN

Variants of: B1
ASSAY_PROTOCOL: protein stability index of a GFP-peptide fusion (GPS, HEK-293T) (PSI 1-6); higher = more stable;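 further: lentivirally expressed fusions sorted by FACS into six bins by GFP to DsRed ratio, PSI derived from sequencing read proportions per bin multiplied by bin number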
MEASUREMENT_CONDITIONS: c terminus: a fixed tail appended

RECORD_SEQUENCE: SELGRYDPDECGSDYISEFRFAPN [D5R]
protein stability index: 2.05

RECORD_SEQUENCE: SELGDYDPDECGSDWISEFRFAPN [Y15W]
protein stability index: 1.97

RECORD_SEQUENCE: SELGDDDPDECGSDYISEFRFAPN [Y6D]
protein stability index: 2.49

RECORD_SEQUENCE: SELGDYDPDECGSDYISEFRFASN [P23S]
protein stability index: 2.51

RECORD_SEQUENCE: YELGDYDPDECGSDYISEFRFAPN [S1Y]
protein stability index: 3.03

RECORD_SEQUENCE: SELGDYDPDECGSDYDSEFRFAPN [I16D]
protein stability index: 4.99

RECORD_SEQUENCE: SEYGDYDPDECGSDYISEFRFAPN [L3Y]
protein stability index: 1.9

RECORD_SEQUENCE: SELGDYDPDECGSDYISEFRFKPN [A22K]
protein stability index: 4.27

RECORD_SEQUENCE: SELGDYPPDECGSDYISEFRFAPN [D7P]
protein stability index: 2.31

RECORD_SEQUENCE: SELGDYDPDECGSDYISEFRKAPN [F21K]
protein stability index: 5.22

RECORD_SEQUENCE: SELGDYDPDECGSDYISEFRFAPE [N24E]
protein stability index: 3.33

RECORD_SEQUENCE: SELSDYDPDECGSDYISEFRFAPN [G4S]
protein stability index: 2.19

RECORD_SEQUENCE: SELGDYDPDECGSDYISEFRFATN [P23T]
protein stability index: 3.15
